System: ALK tyrosine kinase receptor (Homo sapiens, UniProt Q9UM73) | Read-out: IC50 | Origin: multiple publications

COc1cc(N2CCN(C)CC2)ccc1Nc1ncc(Cl)c(NC[C@H]2CCCO2)n1 | 34 nM
O=C(O)c1ccc(-c2cnc3c(c2)N(Cc2cc(F)ccc2F)CCN3)cn1 | 100 to 1000 nM
C[C@@H](Oc1cc(C(=O)Nc2ccc(C(=O)N3CCNC(C)(C)C3)cc2)nnc1N)c1c(Cl)ccc(F)c1Cl | < 1 nM

Consider the additional compound presented here.
So for COc1cc(OCCN2CCN(C)CC2)ccc1Nc1nc(Nc2cccc(F)c2C(N)=O)c2cc[nH]c2n1 , the logged IC50 turned out to be 0.251 to 1 nM

====

pIC50: −log10 of the molar value.
pIC50 for ALK tyrosine kinase receptor (Homo sapiens), merged from several publications.

Example entries and their recorded answers appear below.
CN(C)CCNC(=O)c1ccc(-c2cnc3c(c2)N(C(=O)c2ccccc2)CCN3)cc1 | 4.00 to 5.00
CN1CCC(N2Cc3cc4[nH]c(-c5c(NC[C@@H](O)COc6ccc7c(c6Cl)OCO7)cc[nH]c5=O)nc4cc3C2=O)CC1 | 5.30 to 6.30
N#Cc1c(-c2ccc(O)cc2F)nc2[nH]nc(-c3ccc(C(F)(F)F)cc3)c2c1-c1ccc(N2CCNCC2)cc1 | > 7.00
COC(=O)c1c(-c2ccc(O)cc2)nc2[nH]nc(N)c2c1-c1ccc(N2CCNCC2)cc1 | > 7.00
O=C(NCc1ccccc1Cl)c1cnc2c(c1)N(Cc1cc(Cl)ccc1Cl)CCN2 | 5.00 to 6.00

Entry COc1ccc(OCCCN(C)C)cc1Nc1nc(Nc2ccc(F)cc2C(N)=O)c2cc[nH]c2n1 under ALK tyrosine kinase receptor (Homo sapiens) had pIC50 of 8.40 to 8.90

The value of pIC50 recorded for N#Cc1c(-c2ccc(O)cc2)nc2[nH]ncc2c1-c1cccc(N2CCNCC2)c1 when tested on ALK tyrosine kinase receptor (Homo sapiens) reads 6.00 to 7.00

====

Listing of IC50 toward ALK tyrosine kinase receptor (Homo sapiens, UniProt Q9UM73), each taken from a published source.

COc1cc2c(cc1Nc1nc(Nc3cccc(F)c3C(N)=O)c3cc[nH]c3n1)N(C(=O)CN(C)C)CCC2 | 0.251 to 1 nM
CC(C)NC(=O)CN1CCN(C(=O)c2cnc3c(c2)N(Cc2cc(Cl)ccc2Cl)CCN3)CC1 | 1000 to 10000 nM
CN1CCN(c2ccc(-c3c(C#N)c(-c4ccc(O)cc4)nc4[nH]ncc34)o2)CC1 | 100 to 1000 nM
COc1cc2c(cc1Nc1nc(Nc3cccc(F)c3C(N)=O)c3cc[nH]c3n1)CN(CCCN(C)C)CC2 | 1.26 to 3.98 nM
O=C(NCCc1ccccn1)c1cnc2c(c1)N(Cc1cc(Cl)ccc1Cl)CCN2 | 1000 to 10000 nM

Form field, IC50 with ALK tyrosine kinase receptor (Homo sapiens, UniProt Q9UM73), item Cc1n[nH]c2nc(-c3ccc(O)cc3F)c(C#N)c(-c3ccc(N4CCOCC4)o3)c12 : 100 to 1000 nM

The compound Cc1ccc(OC[C@H](O)CNc2cc[nH]c(=O)c2-c2nc3c(C)c4c(cc3[nH]2)C(=O)N(C2CCN(C)CC2)C4)c(C)c1 , when measured on ALK tyrosine kinase receptor (Homo sapiens, UniProt Q9UM73), yielded IC50 of 500 to 5000 nM

// IC50 (ALK tyrosine kinase receptor (Homo sapiens, UniProt Q9UM73)) for COc1cc2c(cc1Nc1nc(Nc3cccc(F)c3C(N)=O)c3cc[nH]c3n1)N(C(=O)CN1CCN(C(C)C)CC1)CC2 = 5.01 to 200 nM

So the reported IC50 for COc1cc(N2CCOC[C@@H]2C)ccc1Nc1nc(Nc2cccc(F)c2C(N)=O)c2cc[nH]c2n1 , on ALK tyrosine kinase receptor (Homo sapiens, UniProt Q9UM73), turned out to be 1.26 to 3.98 nM

Record for COC(=O)c1c(-c2ccc(OC(=O)C3CC3)cc2F)nc2[nH]nc(C)c2c1-c1ccc(N2CCNCC2)cc1 under target or system ALK tyrosine kinase receptor (Homo sapiens, UniProt Q9UM73): IC50 reported as < 100 nM

====

Below: compounds with pIC50 recorded for ALK tyrosine kinase receptor (Homo sapiens) in separate published works.
pIC50: −log10 of the molar value.

Some entries whose results are on file:
O=C(c1cccc(-c2cnc3c(c2)N(Cc2cc(Cl)ccc2C(F)(F)F)CCN3)c1)N1CCC(n2c(=O)[nH]c3ccccc32)CC1 | 6.00 to 7.00
COC[C@@H](C)N1C(=O)c2cc3nc(-c4c(NC[C@@H](O)c5cccc(Cl)c5)cc[nH]c4=O)[nH]c3cc2C1=O | < 4.82
O=C1NC2(CC2)COc2ncc(F)cc2[C@H]2CCON2c2ccn3ncc1c3n2 | 7.89
COc1cc2c(cc1Nc1nc(Nc3cc(F)cc(F)c3C(N)=O)c3cc[nH]c3n1)N(C(=O)CN(C)C)CC2 | 8.40 to 8.90
O=C(NCc1ccc(OC(F)(F)F)cc1)c1cccc(-c2cnc3c(c2)N(Cc2cc(Cl)ccc2C(F)(F)F)CCN3)c1 | 5.00 to 6.00

The value of pIC50 measured for the compound CNC(=O)c1c(F)cccc1Nc1nc(Nc2cc3c(cc2OC)CCC(=O)N3)nc2[nH]ccc12 turned out to be 6.70 to 8.30

Recorded result, CNC(=O)c1c(F)cccc1Nc1nc(Nc2cc(NC(=O)CN(C)C)ccc2OC)nc2[nH]ccc12 , pIC50: 9.00 to 9.60

For record COc1ccc(OCC(O)CNc2cc[nH]c(=O)c2-c2nc3cc4c(cc3[nH]2)C(=O)N(C2CCN(C)CC2)C4=O)cc1 (centres unmarked) the listed pIC50 is 4.82 to 5.30

====

Endpoint summary: IC50, system: ALK tyrosine kinase receptor (Homo sapiens), multiple sources combined.

Simply: COc1cccc(N2CCN(C(=O)c3cccc(-c4cnc5c(c4)N(Cc4cc(Cl)ccc4C(F)(F)F)CCN5)c3)CC2)c1 , ALK tyrosine kinase receptor (Homo sapiens), IC50 = 100 to 1000 nM

Readout IC50 for NS(=O)(=O)c1ccc(CNC(=O)c2ccc(-c3cnc4c(c3)N(Cc3cc(Cl)ccc3C(F)(F)F)CCN4)cc2)cc1 , test system ALK tyrosine kinase receptor (Homo sapiens), was 100 to 1000 nM

Entry O=C(NC1CCCCC1)c1cccc(-c2cnc3c(c2)N(Cc2cc(Cl)ccc2C(F)(F)F)CCN3)c1 ; assay system ALK tyrosine kinase receptor (Homo sapiens); IC50 recorded at 100 to 1000 nM

Entry COc1cc(C2CCN(C(C)C)CC2)ccc1Nc1nc(Nc2ccc(F)cc2C(N)=O)c2cc[nH]c2n1 , tested on ALK tyrosine kinase receptor (Homo sapiens), has a reported IC50 of 0.251 to 1 nM

Reported ALK tyrosine kinase receptor (Homo sapiens) IC50 for item CN1CCN(c2ccc(-c3cnc4c(c3)C(O)CCN4)cn2)CC1 (stereo not shown) was > 100000 nM

Item N#Cc1c(-c2ccc(O)cc2F)nc2[nH]nc(N)c2c1-c1ccc(N2CCNCC2)cc1F was tested on ALK tyrosine kinase receptor (Homo sapiens); the reported IC50 is < 100 nM

Assay ALK tyrosine kinase receptor (Homo sapiens), sample COc1cc2c(cc1Nc1nc(Nc3cc(Cl)cc(F)c3C(N)=O)c3cc[nH]c3n1)N(C(=O)CN1CCCC1)CCC2 , IC50 read: 0.251 to 1 nM

====

pIC50: −log10 of the molar value.
We begin with pIC50 values for ALK tyrosine kinase receptor (Homo sapiens), as collected from the published literature.

Entry CCCN1CCCC(c2ccc(Nc3nc(Nc4ccccc4C(=O)NC)c4cc[nH]c4n3)c(OC)c2)C1 (stereo not drawn) , ALK tyrosine kinase receptor (Homo sapiens) data, pIC50 value: 9.00 to 9.60

Field pIC50 (ALK tyrosine kinase receptor (Homo sapiens)), entry Cc1ccc(OC[C@H](O)CNc2ccnc(O)c2-c2nc3cc4c(cc3[nH]2)C(=O)N(C2CCN(C)CC2)C4=O)cn1 : 4.82 to 5.30

Tested on ALK tyrosine kinase receptor (Homo sapiens), the item CCN1Cc2c(c(OC(C)C)nn2C[C@H](C)O)/C=C/c2n[nH]c3ccc(cc23)-c2cnn(C)c2O[C@@H](C)C1 showed pIC50 equal to 8.97

I looked up Cc1c(C#N)c(-c2ccc(O)cc2)nc2[nH]nc(-c3ccnc(N4CCN(C)CC4)c3)c12 and its pIC50 for ALK tyrosine kinase receptor (Homo sapiens) was 6.00 to 7.00

Readout pIC50 for CCOC(=O)c1ccc(-c2cnc3c(c2)N(Cc2c(Cl)cccc2Cl)C(=O)CN3)cc1 , test system ALK tyrosine kinase receptor (Homo sapiens), was 4.00 to 5.00

GET /values?item= COc1cc2c(cc1Nc1nc(Nc3cccc(F)c3C(N)=O)c3cc[nH]c3n1)NCCC2 &system= ALK tyrosine kinase receptor (Homo sapiens) returns pIC50: 6.70 to 8.30

Lab note: compound COCCN1C(=O)c2cc3nc(-c4c(NC[C@@H](O)c5cccc(Cl)c5)cc[nH]c4=O)[nH]c3cc2C1=O tested on ALK tyrosine kinase receptor (Homo sapiens); recorded pIC50 was < 4.82

Bench note, ALK tyrosine kinase receptor (Homo sapiens): O=C(NCC(c1ccccc1)c1ccccc1)c1cccc(-c2cnc3c(c2)N(Cc2cc(Cl)ccc2C(F)(F)F)CCN3)c1 , pIC50 reads 6.00 to 7.00

The compound O=C1CNc2ncc(I)cc2N1Cc1cccc(F)c1C(F)(F)F , tested on ALK tyrosine kinase receptor (Homo sapiens), showed pIC50 of < 4.00

Measured on ALK tyrosine kinase receptor (Homo sapiens), O=C(c1ccc(-c2cnc3c(c2)N(Cc2cc(F)ccc2F)CCN3)cc1)N1CCOCC1 has a documented pIC50 of 6.00 to 7.00

Response field pIC50 (ALK tyrosine kinase receptor (Homo sapiens)) for item O=C(c1cccc(-c2cnc3c(c2)N(Cc2cc(Cl)ccc2C(F)(F)F)CCN3)c1)N1CCN(c2cccc(C(F)(F)F)c2)CC1 : 6.00 to 7.00
